- Test system: SNB-19 CNS
- Assay Overview: NCI tumour cell line growth inhibition, 48 h
# reported TGI; entries follow

# example entries with known answers
>  <Molecule>
CCCC(=O)OCC1OC(n2ccc(N)nc2=O)C(OC(=O)CCC)C1OC(=O)CCC (configuration not stated)

>  <TGI>
> 100 µM

$$$$
>  <Molecule>
Cn1c(=O)c2c(ncn2CCNC(CO)C(O)c2ccc([N+](=O)[O-])cc2)n(C)c1=O (configuration not stated)

>  <TGI>
> 100 µM

$$$$

Which measured TGI value corresponds to CCCCC#CC1=C(Br)C(=O)OC1 ?
37.1 µM

How about this molecule: C=C1C(=O)OC2CC(C)C(C(CC(C)=O)OC(C)=O)=CCC12 (configuration not stated)
> 74.9 µM

Another: O=C(Nc1ccc2ncccc2c1)Nc1ccc2ncccc2c1
> 100 µM

What do you have for Nc1ccc([N+](=O)[O-])cc1N=C/C=C/c1ccccc1 ?
> 100 µM

// same read-out, input: C[N+](C)(C)CC1CCCc2ccccc2C1=O (configuration not stated)
85.6 µM

----------
- System: RXF 393 renal
- Assay Overview: NCI tumour cell line growth inhibition, 48 h
TGI values, listed per item
Write it as a number; the unit µM goes unstated.

Illustrative cases are given below, each with its answer.
>  <Compound>
COc1ccc(Sc2[nH]c(C(C)=O)c3ccccc23)cc1

>  <Readout Type>
TGI

>  <Result Unit>
µM

>  <Recorded Value>
39

$$$$
>  <Compound>
COc1ccc(OC)c2c1[nH]c(=O)c1c3ccccc3cn21

>  <Readout Type>
TGI

>  <Result Unit>
µM

>  <Recorded Value>
3.01

$$$$
>  <Compound>
COc1cccc(F)c1C(=O)c1cnc(NC2CCN(S(C)(=O)=O)CC2)nc1N

>  <Readout Type>
TGI

>  <Result Unit>
µM

>  <Recorded Value>
6.19

$$$$
>  <Compound>
CCOC(=O)C(C#N)C1=CC(=O)C(=O)c2ccc(OC)cc21 (stereo unspecified)

>  <Readout Type>
TGI

>  <Result Unit>
µM

>  <Recorded Value>
47.5

$$$$
>  <Compound>
Oc1ccc(Nc2ncnc3c2sc2ncccc23)cc1

>  <Readout Type>
TGI

>  <Result Unit>
µM

>  <Recorded Value>
97

$$$$

Provide the documented TGI with RXF 393 renal as the system for CC(=O)OC(OC(C)=O)c1ccc2ccc3cccc4ccc1c2c34
25.3

Next record, please: CCCCC#CC1=C(Br)C(=O)OC1
4.57

Also CCOC(=O)c1cnc2c(ccc3[nH]n(C)nc32)c1=O ?
95.5

How about COc1cccc(C2c3cc4c(cc3OC(N3CCCCC3)C2C)OCO4)c1O (stereo unspecified) ?
18.7

Do the same for O=C1c2ccccc2C(=O)N1CCn1ccc(NC(c2ccccc2)(c2ccccc2)c2ccccc2)nc1=O please
35.5

Okay, and NC(N)=N/N=C/c1c(-c2ccsc2)nc2sccn12 ?
40

Same question for Cc1ccc(SC2c3ccc(C)cc3Oc3nc(N)c(C#N)c(N)c32)cc1 (stereo unspecified) please.
3.28

Same for CC(=O)N=C1N(/C=C2\C(=O)Oc3ccccc3C2=O)C(=O)/C(=C/c2cccc(Cl)c2Cl)N1C
84.6

----------
- Test system: ACHN renal
- Assay Overview: NCI tumour cell line growth inhibition, 48 h
# TGI per record follows

// solved cases for TGI follow
>  <Molecule>
CC1=C(C)CC2C(=O)N(c3cc(C(C)(C)C)ccc3C(C)(C)C)C(=O)C2C1 (stereo not given)

>  <TGI>
23.2 µM

$$$$
>  <Molecule>
O=C(O)c1nnsc1-c1ccc(-c2snnc2C(=O)O)cc1

>  <TGI>
> 100 µM

$$$$
>  <Molecule>
CC(=O)N(C(C)=O)c1ncc(-n2nc(-c3ccccc3)cc2-c2ccccc2)c(-c2ccccc2)n1

>  <TGI>
> 10 µM

$$$$
>  <Molecule>
CC(=O)OC1COC(Oc2c(C)c3c4c(c2O)[C@@H](C)CC[C@@H]4[C@@H](C)C[C@H]3C=C(C)C)C(O)C1OC(C)=O (stereo not given in full)

>  <TGI>
22.9 µM

$$$$
>  <Molecule>
CN(C)c1ccc(/C=c2/c3ccccc3n3c2c2c([n+]3C)CCCC2)cc1

>  <TGI>
1.99 µM

$$$$

# query: TGI | item O=C(Nc1ccccc1)c1cc(S(=O)(=O)NC2=NC(c3ccccc3)c3cc(Cl)ccc3N2)c(SSc2cc(Cl)c(C(=O)Nc3ccccc3)cc2S(=O)(=O)NC2=NC(c3ccccc3)c3cc(Cl)ccc3N2)cc1Cl (stereo not given) | system: ACHN renal
> 100 µM

Could you do the same for N#CN/C(N)=N/CO , please?
> 100 µM

Item: CC(C)NC(=O)OCc1c(COC(=O)NC(C)C)c(-c2cc[n+](COC(=O)C3CC3)cc2)n2c1CCC2
> 100 µM

Thanks! And CN1CCc2c([nH]c3ccccc23)C1 ?
> 100 µM

Also, CCOC(=O)c1cnc2c(ccc3[nH]n(C)nc32)c1=O please.
> 100 µM

----------
- Test system: T-47D breast
- Assay Overview: NCI tumour cell line growth inhibition, 48 h; in the data active = GI50 below about 0.43 µM; inactive = the rest
Select the correct class. Options are active, inactive and nothing else.

Test call, this compound: c1ccc(-c2nnc(-c3ccccn3)s2)nc1
inactive

What do you get for CNCc1ccccc1-c1csc([C@@H](C)Nc2nc(C)nc3cc(OC)c(OC)cc23)c1 ?
inactive

Further, for C[N+](C)(C)CC1CCCc2ccccc2C1=O (stereo not drawn) ?
inactive

Likewise for N#Cc1c(N)nc(N2CCOCC2)c(C#N)c1-c1ccncc1 ?
inactive

Would you mind doing COc1cc(OCc2cccc(-c3ccc(C(O)c4nccs4)cc3)c2C)cc(OC)c1C=O (stereo not drawn) as well?
active

----------
- Tested on: HCC-2998 colon
- Assay Overview: NCI tumour cell line growth inhibition, 48 h
Measured TGI, listed per entry for reference.

A selection of reference data follows.
>  <Compound>
CCn1c(-c2ccccc2)cs/c1=N\C(P(=O)(O)O)P(=O)(O)O

>  <TGI>
> 100 µM

$$$$
>  <Compound>
CO/N=C(\C)c1ccc(Nc2nc3ccccc3c3occc23)cc1

>  <TGI>
30.4 µM

$$$$

Sample CCCCCCCCCCCCCC(=O)OCC(C[As](=O)(O)O)OC(=O)CCCCCCCCCCCCC (stereo not given) — what was its TGI?
> 100 µM

Now consider CC(C)C(CCl)NC(=O)c1cccc(C(=O)N[C@H](CCl)C(C)C)n1 (stereo in doubt) .
> 100 µM

Moving on to CO[C@@]12C[C@@H](C)C3=CCC(C)=C3CC1=C(C)C(=O)O2
> 100 µM

What about this compound? N#C[C@H](c1ccccn1)c1nc2ccccc2nc1Cl
> 100 µM

Item: CSC1=Nc2c(c(C)c(C)n2COC(CO)CO)C2=NC(=O)C(C)N12 (stereo not given)
> 100 µM

Could you do the same for O=C1c2ccccc2C(=O)N1CCn1ccc(NC(c2ccccc2)(c2ccccc2)c2ccccc2)nc1=O , please?
37.7 µM

Now try O=c1oc2ccc3ccccc3c2cc1-c1nc2ccccc2s1 .
> 100 µM

One more compound: CCOC1(OCC)C2C=CC1C(COS(=O)(=O)c1ccc(C)cc1)C2COS(=O)(=O)c1ccc(C)cc1 (stereo not given)
> 100 µM

----------
- Tested on: M14 melanoma
- Assay Overview: NCI tumour cell line growth inhibition, 48 h
Readout Type: GI50

Take a look at these entries with their results.
>  <Compound>
COc1cc(Nc2ncccc2C(=O)NCc2cn(Cc3cccc(Oc4ccccc4)c3)nn2)cc(OC)c1

>  <GI50>
4.8 µM

$$$$
>  <Compound>
C/C=C(\C)C(=O)O[C@H]1C=CC(=O)O[C@H]1CCC(=O)[C@H](C)O

>  <GI50>
14.6 µM

$$$$
>  <Compound>
CNCc1ccccc1-c1csc([C@@H](C)Nc2nc(C)nc3cc(OC)c(OC)cc23)c1

>  <GI50>
1.79 µM

$$$$
>  <Compound>
N#Cc1c(N)nc(N2CCOCC2)c(C#N)c1-c1ccncc1

>  <GI50>
> 100 µM

$$$$

// switching to the query compound
Give the measured GI50 of COC(=O)c1ccc2c(c1)nc(NC(=O)c1ccccc1)n2CCCc1ccccc1 .
2.28 µM

----------
Quick reference for TGI among some compounds
- Test system: OVCAR-4 ovarian
- Assay Overview: NCI tumour cell line growth inhibition, 48 h

Answered examples (8):
>  <Compound>
COc1ccc(Sc2[nH]c(C(C)=O)c3ccccc23)cc1

>  <TGI>
32 µM

$$$$
>  <Compound>
CCN(CC)CCCN1CCc2c([nH]c3ccccc23)C1c1cccnc1 (stereo unspecified)

>  <TGI>
> 100 µM

$$$$
>  <Compound>
Cc1ccc(-n2cnc(C(=N)C#N)c2N)cc1

>  <TGI>
> 100 µM

$$$$
>  <Compound>
COC(=O)c1c(O)ccc2c1c1c(n2Cc2cc(OC)cc(OC)c2)C(=O)c2ccccc2C1

>  <TGI>
44.8 µM

$$$$
>  <Compound>
CC(C)(C)NNC(=O)CCn1[nH]c(=O)c(Cl)c(Cl)c1=O

>  <TGI>
> 100 µM

$$$$
>  <Compound>
CC(C)(C)OC(=O)NC1CCCCC1NC(=O)C(=O)NC1CCCCC1NC(=O)OC(C)(C)C (stereo unspecified)

>  <TGI>
> 100 µM

$$$$
>  <Compound>
O=c1sc2ccccc2n1CC1CS1 (stereo unspecified)

>  <TGI>
> 100 µM

$$$$
>  <Compound>
Cn1c(I)c(C#CCO[Si](C)(C)C(C)(C)C)c(=O)[nH]c1=O

>  <TGI>
27.4 µM

$$$$

Data request, read-out TGI, for C=C(Cl)C(=CCl)CCC(Br)C(C)(C)Cl (mixture of isomers)
> 10 µM

Now the compound CC1(C)COC(C2(C)C(=O)C=C(c3ccccc3)c3ccccc32)=N1 (stereo unspecified)
> 100 µM

Repeat with COc1ccc2occ(CCC(=O)O)c2c1
> 100 µM
